test system: MCF7; test: Antiproliferative activity against human MCF7 cells after 48 hrs by MTT assay; type: functional, cell-based; conditions: MCF7, 48 h
pIC50: −log10 of the molar value.
Parameter Measured: pIC50

[[record]]
structure_string = "COc1cc(/C=C/c2nnc(NC(=O)c3ccc(F)cc3)s2)c(Br)c(OC)c1OC"
quantitative_result = 6.42

[[record]]
structure_string = "COc1cccc(C(=O)Nc2nnc(/C=C/c3cc(OC)c(OC)c(OC)c3Br)s2)c1"
quantitative_result = 6.77

[[record]]
structure_string = "COc1cc(/C=C/c2nnc(NC(=O)c3ccccc3Br)s2)c(Br)c(OC)c1OC"
quantitative_result = 6.43

[[record]]
structure_string = "COc1cc(/C=C/c2nnc(NC(=O)c3ccc(Cl)cc3)s2)c(Br)c(OC)c1OC"
quantitative_result = 6.55

[[record]]
structure_string = "COc1cc(/C=C/c2nnc(NC(=O)c3ccccc3)s2)c(Br)c(OC)c1OC"
quantitative_result = 6.54


* * *

system: MCF7; test: Antiproliferative activity against human MCF7 cells after 48 hrs by MTT assay; format: functional, cell-based; settings: MCF7, 48 h
pIC50: −log10 of the molar value.
A collection of compounds and their measured pIC50
Parameter Measured: pIC50

[[record]]
structure_string = "COc1cc(C(=O)Nc2nnc(/C=C/c3cc(OC)c(OC)c(OC)c3Br)s2)cc(OC)c1OC"
quantitative_result = 6.29

[[record]]
structure_string = "COc1cc(/C=C/c2nnc(NC(=O)c3cccc(F)c3)s2)c(Br)c(OC)c1OC"
quantitative_result = 6.47

[[record]]
structure_string = "COc1cc(/C=C/c2nnc(NC(=O)c3cccc(O)c3)s2)c(Br)c(OC)c1OC"
quantitative_result = 6.44

[[record]]
structure_string = "COc1ccc(/C=C/c2nnc(NC(=O)c3ccccc3OC)s2)cc1OC"
quantitative_result = 6.27

[[record]]
structure_string = "COc1ccccc1C(=O)Nc1nnc(/C=C/c2cc(OC)c(OC)c(OC)c2Br)s1"
quantitative_result = 6.22

[[record]]
structure_string = "COc1cc(/C=C/c2nnc(NC(=O)c3cccc(Br)c3)s2)c(Br)c(OC)c1OC"
quantitative_result = 6.59

[[record]]
structure_string = "COc1ccc(C(=O)Nc2nnc(/C=C/c3cc(OC)c(OC)c(OC)c3Br)s2)cc1"
quantitative_result = 6.25

[[record]]
structure_string = "COc1cc(/C=C/c2nnc(NC(=O)c3cc(OC)c(OC)c(OC)c3)s2)cc(OC)c1OC"
quantitative_result = 6.31

[[record]]
structure_string = "COc1ccc(/C=C/c2nnc(NC(=O)c3cc(OC)c(OC)c(OC)c3)s2)cc1OC"
quantitative_result = 6.25

